Assay: NCI Yeast Anticancer Drug Screen. Data for the rad50EPP+ strain (AID 151);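 also: 0% = growth of vehicle-treated control cultures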
Conditions: S. cerevisiae rad50 mutant strain, at 1.2 µM, active compounds read high
The panel holds about 79,000 compounds, 15% with a hit somewhere; the sample as a whole holds those more often.

Molecule	growth inhibition, %
COc1ccc(C2CC(C)(N3CCCC3)Oc3cc4c(cc32)OCO4)cc1 (stereo unspecified)	4
C/C1=C/C2OC(=O)C3(C)C2C(CC2(C)OC1=CC2=O)OC3(O)C(C)C (stereo unspecified)	-9
Oc1ccc(N=Nc2ccc(Cl)cc2)cc1	8
Cc1cccc(C)c1NC(=O)CCC(=O)C(C)C(=O)c1ccc(O)cc1 (stereo unspecified)	0
O=C(O)CNC(c1ccccc1)(c1ccccc1)c1ccccc1	11
CCN(CC)CC(=O)c1ccc2cc(Cl)c3ccccc3c2c1	68
CC(C)(CN1CCCCC1)C(=O)CC(SCCS(=O)(=O)O)c1ccccc1 (stereo unspecified)	1
O=C(O)C1CCCCC1c1c2ccc(=O)cc-2oc2cc(O)ccc12 (stereo unspecified)	11
Nc1ccc2cc(Br)ccc2c1Br	1
CC1(C)OC(=O)C(=Cc2ccc([N+](=O)[O-])s2)C(=O)O1	-17
CN(C)CCCn1c2c3ccccc3ccc2c2oc(=O)c3ccccc3c21	13
O=[N+]([O-])c1cn[n+]([O-])c2ccccc12	61
CCOC(=O)CC1(C)/C(=N\Nc2ccc([N+](=O)[O-])cc2[N+](=O)[O-])CCC2C1CCC1(C)C(C(C)CCCC(C)C)CCC21 (stereo unspecified)	-2
CC(C)CCC[C@@H](C)[C@H]1CC[C@H]2[C@@H]3CC[C@H]4C[C@H](N)CC[C@]4(C)[C@H]3CC[C@]12C	0
COc1ccc(/C=C2\SC(=S)N(/C=C3\C(=O)N(c4ccccc4)N=C3C)C2=O)cc1OC	-1
COc1ccc2cc(C(C)C(=O)N3CCOC3=O)ccc2c1 (stereo unspecified)	5
Cc1ccc(Nc2n[nH]c(=S)s2)c(C)c1	-45
CC1(c2ccccc2)O[C@@H]2C[C@H]3[C@@H]4CCC5=CC(=O)C=C[C@]5(C)[C@@]4(F)[C@@H](O)C[C@]3(C)[C@]2(C(=O)CO)O1 (stereo partly specified)	3
O=c1cccccc1[O-].O=c1cccccc1[O-].O=c1cccccc1[O-].[Eu+3]	0
Nc1ccc(/C=C/c2ccc3cccnc3c2)cc1	-2
Cc1ccc(S(=O)(=O)Nc2cccc3cccnc23)cc1	16
